Target: T1, Shc phosphotyrosine binding (PTB) domain (UniProt P29353-2 17-207, Atto488 label, 1:1 protein:dye (in the MST only))
T1 sequence: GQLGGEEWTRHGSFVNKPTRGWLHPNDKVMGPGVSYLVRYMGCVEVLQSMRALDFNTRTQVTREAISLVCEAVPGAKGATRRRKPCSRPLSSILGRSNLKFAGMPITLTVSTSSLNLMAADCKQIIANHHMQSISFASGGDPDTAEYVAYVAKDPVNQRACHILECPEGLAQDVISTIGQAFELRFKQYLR
Assay: MST
Square brackets hold non-standard residues; d marks the D form. Ends that are not written are not given here. pY = N[C@@H](Cc1ccc(OP(=O)(O)O)cc1)C(=O)O
measured property: pKd
The meaning of pKd here: minus log10 of the concentration in molar units.

Name the reported pKd value associated with the binder SPAFDNLY[pY]WDQ [ErbB2 pY1122 peptide]
6.58
